Molecular target: human αVβ1 (Homo sapiens, UniProt P05556+P06756)
Sequence (P06756 31-992 limits assumed): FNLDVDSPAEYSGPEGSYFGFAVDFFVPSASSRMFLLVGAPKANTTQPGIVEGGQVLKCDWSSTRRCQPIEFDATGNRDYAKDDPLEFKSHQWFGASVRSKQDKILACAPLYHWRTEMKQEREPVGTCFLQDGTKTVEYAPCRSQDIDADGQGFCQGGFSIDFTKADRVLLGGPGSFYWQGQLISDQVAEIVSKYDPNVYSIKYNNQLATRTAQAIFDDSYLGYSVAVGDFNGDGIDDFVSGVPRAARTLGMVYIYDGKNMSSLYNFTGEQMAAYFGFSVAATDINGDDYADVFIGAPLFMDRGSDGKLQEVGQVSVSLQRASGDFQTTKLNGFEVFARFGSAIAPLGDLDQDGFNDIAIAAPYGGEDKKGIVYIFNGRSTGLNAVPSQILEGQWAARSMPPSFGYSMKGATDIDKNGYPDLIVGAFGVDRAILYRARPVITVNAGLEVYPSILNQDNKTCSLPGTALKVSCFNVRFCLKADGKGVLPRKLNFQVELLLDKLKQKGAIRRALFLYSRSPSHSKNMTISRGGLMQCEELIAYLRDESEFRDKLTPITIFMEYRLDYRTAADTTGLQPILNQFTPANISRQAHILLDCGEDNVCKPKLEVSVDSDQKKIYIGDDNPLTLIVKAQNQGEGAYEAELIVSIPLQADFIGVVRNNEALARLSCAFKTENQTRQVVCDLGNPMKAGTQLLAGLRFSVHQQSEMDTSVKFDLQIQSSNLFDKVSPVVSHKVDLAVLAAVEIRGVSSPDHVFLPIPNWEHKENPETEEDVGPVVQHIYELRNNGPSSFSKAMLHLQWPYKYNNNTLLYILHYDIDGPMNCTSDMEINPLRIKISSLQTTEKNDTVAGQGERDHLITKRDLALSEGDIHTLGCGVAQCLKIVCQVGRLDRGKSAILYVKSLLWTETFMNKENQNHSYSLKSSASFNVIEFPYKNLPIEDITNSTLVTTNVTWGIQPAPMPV
Sequence (P05556 21-728 limits assumed): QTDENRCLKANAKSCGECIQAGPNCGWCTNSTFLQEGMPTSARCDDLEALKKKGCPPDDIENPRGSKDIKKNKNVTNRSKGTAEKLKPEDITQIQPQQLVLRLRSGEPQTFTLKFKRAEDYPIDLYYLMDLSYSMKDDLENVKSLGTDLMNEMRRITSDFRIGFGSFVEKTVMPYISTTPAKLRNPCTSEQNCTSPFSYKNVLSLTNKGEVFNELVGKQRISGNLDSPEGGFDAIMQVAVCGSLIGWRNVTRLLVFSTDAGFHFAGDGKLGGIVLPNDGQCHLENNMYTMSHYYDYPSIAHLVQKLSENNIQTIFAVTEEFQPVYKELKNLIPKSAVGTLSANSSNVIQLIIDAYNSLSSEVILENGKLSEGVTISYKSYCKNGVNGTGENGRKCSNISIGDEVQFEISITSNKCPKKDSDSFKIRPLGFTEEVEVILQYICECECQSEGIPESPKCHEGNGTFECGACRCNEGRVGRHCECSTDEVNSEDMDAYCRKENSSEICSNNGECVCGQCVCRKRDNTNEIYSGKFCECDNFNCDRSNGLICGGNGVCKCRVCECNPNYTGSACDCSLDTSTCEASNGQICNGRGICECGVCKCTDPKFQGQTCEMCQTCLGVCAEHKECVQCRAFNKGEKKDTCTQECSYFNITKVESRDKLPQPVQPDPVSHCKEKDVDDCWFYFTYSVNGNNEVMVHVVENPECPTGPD
Assay: human αVβ1 HTRF binding assay
Conditions: alternatively SPA-based assay
Description: All binding assays used the HTRF (homogeneous time resolved fluorescence) technology from Cisbio International, therefore all assays are described as HTRF binding assays. The assay results for the Examples are listed above together with the characterization data. The HTRF binding assays are established for the following integrins: human αVβ6, human αVβ1, human αVβ3, human αVβ5, and human αVβ8. […]
pIC50: −log10 of the molar value.
Recorded pIC50 by entry
PARAMETER: pIC50

compound=O=C(O)C[C@H](NC(=O)[C@H]1C[C@@H](CCc2ccc3c(n2)NCCC3)C1)c1cnc2ccccc2c1 result=6.48
compound=O=C(N[C@@H](CNC(=O)[C@H]1C[C@@H](CCc2ccc3c(n2)NCCC3)C1)C(=O)O)OCc1ccccc1 result=7.32
compound=O=C(O)C[C@H](NC(=O)C1(F)CN(CCc2ccc3c(n2)NCCC3)C1)c1cnc2ccccc2c1 result=6.05
compound=COc1ccc([C@H](CC(=O)O)NC(=O)N2CC(CCc3ccc4c(n3)NCCC4)C2)cn1 result=6.29
compound="COc1ccc([C@H](CC(=O)O)N2CC(CCCCc3ccc4c(n3)NCCC4)C2=O)cn1 (stereo partly drawn)" result=6.40
compound=O=C(N[C@@H](CNC(=O)[C@H]1C[C@H](CCc2ccc3c(n2)NCCC3)C1)C(=O)O)OCc1ccccc1 result=7.43
compound=COc1ccc([C@H](CC(=O)O)NC(=O)N2CC(CCc3ccc4c(n3)NCCC4)C2)cc1F result=6.73
compound=O=C(O)C[C@H](NC(=O)[C@H]1C[C@H](CCc2ccc3c(n2)NCCC3)C1)c1ccc2c(c1)OCC2 result=6.82
compound=Cc1ncc([C@H](CC(=O)O)NC(=O)[C@H]2C[C@@H](CCc3ccc4c(n3)NCCC4)C2)cn1 result=5.66
compound=COc1ncc([C@H](CC(=O)O)NC(=O)[C@H]2C[C@@H](CCc3ccc4c(n3)NCCC4)C2)cn1 result=5.40
compound=O=C(O)C[C@H](NC(=O)[C@H]1C[C@H](CCc2ccc3c(n2)NCCC3)C1)c1cnc2ccccc2c1 result=7.22
compound="O=C(O)C[C@@H](c1ccc2c(c1)CCO2)N1CC(CCCCc2ccc3c(n2)NCCC3)C1=O (stereo partly drawn)" result=6.68

Source listed as patent US11639353B2.
